molecular target: PfENT1WT (Plasmodium falciparum, UniProt Q8IDM6); construct: 10xHis (N); made in house; host or cells: Sf9 insect cells (baculovirus); assay: biochemical; assay type: binding; details: Kd, Mean and Mean ± SD, source data Figure 1a
Sequence (Q8IDM6 whole entry): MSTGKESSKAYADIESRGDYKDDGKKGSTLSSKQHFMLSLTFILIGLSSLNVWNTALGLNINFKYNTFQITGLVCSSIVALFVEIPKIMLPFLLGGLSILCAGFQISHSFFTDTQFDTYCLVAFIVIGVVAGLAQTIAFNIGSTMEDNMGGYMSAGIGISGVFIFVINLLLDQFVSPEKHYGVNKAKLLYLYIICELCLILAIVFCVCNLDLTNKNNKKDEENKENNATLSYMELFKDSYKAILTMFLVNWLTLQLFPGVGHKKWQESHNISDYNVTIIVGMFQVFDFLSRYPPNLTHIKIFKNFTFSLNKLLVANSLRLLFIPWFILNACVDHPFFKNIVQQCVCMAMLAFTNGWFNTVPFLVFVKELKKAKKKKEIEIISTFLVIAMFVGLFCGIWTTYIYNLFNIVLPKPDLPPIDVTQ
Overview of reported Kd across a group of compounds:
Your answer should be a plain number; it is taken to be in µM.

- Nc1nc2c(ncn2[C@@H]2O[C@H](CO)[C@@H](O)[C@H]2O)c(=O)[nH]1 [Guanosine, guanosine]: 186

Shifting focus to the compound that follows.
Endpoint output: Kd of OC[C@H]1O[C@@H](n2cnc3c(O)ncnc32)[C@H](O)[C@@H]1O [Inosine, inosine] . Value? 64.7
